Each recorded value in this set is attributed to PubChem BioAssay (NCI).

tested on: DU-145 prostate; test: NCI-60 one-dose screen, 48 h (100 = growth as untreated, 0 = no growth, -100 = all killed); details: 10 µM unless noted
About 83,000 compounds went through this panel and 20% of them were active in at least one assay; those are over-represented in the sample as a whole.
growth listing for selected molecules.
State the answer as a number, implicitly in %.

Structure As Smiles: COc1ccc(-c2cn(-c3cccc(C(=O)/C=C/c4ccc(O)c(OC)c4)c3)c(=O)[nH]2)cc1
Unit Abbrev: %
Observed Result: 6.8

Structure As Smiles: O=NN(CC(=O)NNc1ccccc1)CC(=O)NNc1ccccc1
Unit Abbrev: %
Observed Result: 68.7

Structure As Smiles: COc1ccccc1/C=N\NC(=S)Nc1ccc(F)cc1
Unit Abbrev: %
Observed Result: 98.6

Structure As Smiles: C=C(C)[C@@H]1CC[C@]2(C)[C@H](CC=C3[C@@H]4C[C@](C)(C(=O)N5CCN(C)CC5)CC[C@]4(C)CC[C@]32C)[C@@]1(C)CCC#N
Unit Abbrev: %
Observed Result: 88.3

Now examine the next entry.
Query :: Looking for the measured growth of `Cc1ccc(CSCc2ccc(C(=O)NC3CC3)o2)cc1` , can you help?
Result :: 80.5

* * *

tested on: CAKI-1 renal; assay: NCI-60 one-dose screen, 48 h; conditions: 10 µM unless noted
Compounds without any hit were thinned out: in the full panel of roughly 83,000, 20% have a hit. Active and inactive are the calls of the source. The calls were made as follows: active = growth percent below 10; inactive = the rest.
Can you answer with just one of these options? True (active), False (inactive)

Answered examples (5):
Compound: CCOC(=O)NNc1cccc(Cl)c1
Measured Target: CAKI-1 renal
Class Assignment: False

Compound: COS(=O)(=O)CCN(CCOS(C)(=O)=O)S(C)(=O)=O
Measured Target: CAKI-1 renal
Class Assignment: False

Compound: Fc1ccc2nc(-c3ccc(-c4noc(-c5ccc(Cl)cc5)n4)cc3)[nH]c2c1
Measured Target: CAKI-1 renal
Class Assignment: False

Compound: Cc1cc(Cl)c2ccc(N(C)C)cc2n1
Measured Target: CAKI-1 renal
Class Assignment: False

Compound: Cc1cc(C#Cc2ccccc2)ccc1-n1c(/C=C/c2ccc(F)cc2)nc2ccccc2c1=O
Measured Target: CAKI-1 renal
Class Assignment: False

Query :: Hello, I am checking results. What call was entered for `COC(=O)CNS(=O)(=O)c1ccc2c(c1)Cc1cc(S(=O)(=O)NCC(=O)OC)ccc1-2` ?
Result :: False

Query :: Please indicate how the test categorized `Cc1nc2ccc(Nc3nc(NCCN4CCOCC4)nc(Nc4ccc(F)cc4)n3)cc2n1Cc1ccccc1` .
Result :: False

Query :: Just curious, what result did `CCN(CC)c1ccc2nc3c4ccccc4c(=O)cc-3n(-c3ccccc3)c2c1` get here?
Result :: True

Query :: Per the assay record, what outcome was assigned to `CN(C)c1ccc(/C=C(\C#N)c2nc3ccccc3n2C)cc1` ?
Result :: False

Query :: Outcome? Cc1ccccc1N1C(c2ccccc2)=NNC12C=CC(=O)c1c(O)cccc12 (configuration not stated)
Result :: False

Query :: Short answer needed: outcome of this test for `Cc1c(C)c(C)c([N+](=O)[O-])c([N+](=O)[O-])c1C` ?
Result :: False

* * *

tested on: EKVX NSCLC; experiment: NCI-60 one-dose screen, 48 h; conditions: 10 µM unless noted
Compounds without any hit were thinned out: in the full panel of roughly 83,000, 20% have a hit. The source made the active and inactive calls. How the source made its calls: active means growth percent below 10; inactive means the rest.
Bench note: report the call from Yes = active, No = inactive

Worked cases, answers included:
Molecule: CCNS(=O)(=O)c1ccc(C)cc1
Class Assignment: No

Molecule: COC(=O)C1(C)COP(=O)(NC23CC4CC(CC(C4)C2)C3)OC1 (stereo unspecified)
Class Assignment: No

Molecule: CCCCCCCCCCC(C(O)c1ccccc1)N1CCCCC1 (stereo unspecified)
Class Assignment: No

Query :: Hi team, can someone confirm the assay call for `COC(=O)c1cc2oc(/C=N/NC(=O)c3cc4oc(-c5cccc(C(F)(F)F)c5)cc4[nH]3)cc2n1Cc1ccccc1` ?
Result :: No

Query :: Lab log entry: `COc1ccc([C@@H]2[C@@H](Cl)C(=O)N2c2cc(OC)c(OC)c(OC)c2)cc1C` — outcome as called in the assay?
Result :: No

Query :: Short answer needed: outcome of this test for `COc1ccc2[nH]c(C(=O)OCc3ccc4cccc(O)c4n3)cc2c1` ?
Result :: Yes

Query :: Record request — test call for CCN(CC)CCCC(C)Nc1cnc(C(=O)Nc2ccc(Cl)c3cccnc23)cn1 (stereo unspecified)
Result :: No

Query :: Entry OC(c1cc2c(Cl)cc(Cl)cc2c2cc(C(F)(F)F)ccc12)C1CCCCN1 (stereo unspecified) : call = ?
Result :: Yes

* * *

Tested on: KM12 colon
Assay: NCI-60 one-dose screen, 48 h
Conditions: 10 µM unless noted
Experimental: Growth inhibition of the KM12 human tumor cell line is measured as a screen for anti-cancer activity. Cells are grown in 96 well plates and exposed to the test compound for 48 hours. Compounds are tested at a single concentration, which is 10^-5 M for most compounds. The reported endpoint is percent growth (GI% or GIPRCNT), where numbers from 0 - 100% represent growth inhibition, and numbers from -100% - 0 represent cell death. For example, a value of 40 represents 60% growth inhibition. […]
Compounds without any hit were thinned out: in the full panel of roughly 83,000, 20% have a hit. Calls of active or inactive are those of the source. Rule for the calls: active = growth percent below 10; inactive = the rest.
Pick from active, inactive when you respond.

Compound: Clc1ncnc2scc(C3COc4ccccc4O3)c12 (configuration not stated)
Class Assignment: inactive

Query :: Dear all, I need the recorded test outcome for `c1ccc2c(c1)cnc1ccccc12` , thank you.
Result :: inactive

Query :: Entry CC1=NC(c2ccc(Cl)cc2)C2=C(N1)/C(=C/c1ccc(Cl)cc1)CCC2 (configuration not stated) : call = ?
Result :: inactive

Query :: Which result was noted for this compound in the test: `Cc1nc2n[nH]c(N)c2nc1C`
Result :: inactive

Query :: Please share the test call associated with `CN1CCN(Cc2ccc(NC(=O)c3cncc(C#Cc4ncc5cnccn45)c3)cc2C(F)(F)F)CC1` .
Result :: inactive

Query :: For `O=C(N=Nc1c(Cl)c(O)c2ccccc2c1O)C(=O)Nc1cccc(C(F)(F)F)c1` , which call appears in the assay record?
Result :: inactive

Query :: Assay outcome for CCCC(CCC)NCC(O)c1cc(-c2ccc(C(F)(F)F)cc2)nc(C(F)(F)F)c1 (configuration not stated) : what was it?
Result :: active

Query :: Identify the outcome logged in this assay for the compound shown: `COc1ccc(-n2nc(C(=O)NCC(=O)Nc3nc4cc(OC)ccc4s3)c3ccccc3c2=O)cc1`
Result :: inactive

Query :: Hi, sorry to bother you, what did the test record for `CCCc1n(Cc2ccc3ccccc3n2)cc[n+]1Cc1ccc2ccccc2n1` ?
Result :: inactive

* * *

system: LOX IMVI melanoma; experiment: NCI-60 one-dose screen, 48 h (100 = growth as untreated, 0 = no growth, -100 = all killed); conditions: 10 µM unless noted
The panel holds about 83,000 compounds, 20% with a hit somewhere; the sample as a whole holds those more often.
Each entry gets no if its growth stays under 20%, and yes if its growth is 20% or above.

Example results:
Compound: C#CCNC(=S)N/N=C(\C)c1ccccn1
Class Assignment: no

Compound: CN(C)CCOc1nc2c3ccncc3cc(-c3cccc(Cl)c3)c2c2cnccc12
Class Assignment: no

Compound: Brc1cccc(-n2ncc3c(Nc4ccc(-c5nnc(-c6ccccc6)o5)cc4)ncnc32)c1
Class Assignment: yes

Compound: COc1cc(C2C=C(C)N=C3SC=NN32)cc(OC)c1OC (stereo not drawn)
Class Assignment: yes

Compound: COc1ccc(NC(=O)/C=C/c2ccc(NC(=O)N3CCCC3)cc2)cn1
Class Assignment: yes

Query :: // inclusive: growth at least 20%? input: `CCCCCCCCCCCCCCCCCC1=NC(C)(C)CN1C(C)(C)CO`
Result :: no

Query :: In plain terms: is recorded growth at least 20% for `COc1ccc(-c2nc(-c3cc(OC)cc(OC)c3)[nH]c2-c2ccc(OC)cc2)cc1` ?
Result :: yes

Query :: Check if growth >= 20% (inclusive). Item: `Clc1ccc2c(c1)-n1cccc1C(c1ccc3ccccc3c1)=NC2`
Result :: yes

Query :: Please indicate if the recorded growth for `Cn1c(=O)c2[nH]c(Cc3ccc4c(c3)OCO4)nc2n(C)c1=O` meets or exceeds 20%.
Result :: yes

Query :: Answer whether growth of `COC(=O)c1cc2oc(/C=N/NC(=O)c3cc4oc(-c5cccc(C(F)(F)F)c5)cc4[nH]3)cc2n1Cc1ccccc1` is greater than or equal to 20%.
Result :: yes

Query :: Could you verify whether the entry Nc1ncnc2c1N=C(c1ccc(F)cc1)CC(c1sc(Cl)nc1Cl)N2 (stereo not drawn) shows growth of no less than 20%?
Result :: yes

Query :: growth >= 20% for `COc1ccc(/C=C/C(=O)c2ccc(NC(=O)CSc3nnc(-c4ccc(Cl)cc4)n3-c3ccccc3)cc2)cc1` ?
Result :: yes

Query :: Assess whether reported growth for `C#CC[C@@H]1C[C@]2(C)[C@H]3CC=C4[C@H]5[C@@H](C)[C@H](C)CC[C@]5(C(=O)NCCCN5CCN(CCCN)CC5)CC[C@@]4(C)[C@]3(C)CC[C@H]2C(C)(C)[C@H]1OC(C)=O` sits at 20% or higher.
Result :: no
